TEST_SYSTEM: ALPK1 (Homo sapiens, UniProt Q96QP1)
Construct: endogenous in cells; host or cells: HEK293 (A1); HEK293 stably expressing an NF-kB-alkaline phosphatase reporter (A2)
Sequence (Q96QP1 whole entry): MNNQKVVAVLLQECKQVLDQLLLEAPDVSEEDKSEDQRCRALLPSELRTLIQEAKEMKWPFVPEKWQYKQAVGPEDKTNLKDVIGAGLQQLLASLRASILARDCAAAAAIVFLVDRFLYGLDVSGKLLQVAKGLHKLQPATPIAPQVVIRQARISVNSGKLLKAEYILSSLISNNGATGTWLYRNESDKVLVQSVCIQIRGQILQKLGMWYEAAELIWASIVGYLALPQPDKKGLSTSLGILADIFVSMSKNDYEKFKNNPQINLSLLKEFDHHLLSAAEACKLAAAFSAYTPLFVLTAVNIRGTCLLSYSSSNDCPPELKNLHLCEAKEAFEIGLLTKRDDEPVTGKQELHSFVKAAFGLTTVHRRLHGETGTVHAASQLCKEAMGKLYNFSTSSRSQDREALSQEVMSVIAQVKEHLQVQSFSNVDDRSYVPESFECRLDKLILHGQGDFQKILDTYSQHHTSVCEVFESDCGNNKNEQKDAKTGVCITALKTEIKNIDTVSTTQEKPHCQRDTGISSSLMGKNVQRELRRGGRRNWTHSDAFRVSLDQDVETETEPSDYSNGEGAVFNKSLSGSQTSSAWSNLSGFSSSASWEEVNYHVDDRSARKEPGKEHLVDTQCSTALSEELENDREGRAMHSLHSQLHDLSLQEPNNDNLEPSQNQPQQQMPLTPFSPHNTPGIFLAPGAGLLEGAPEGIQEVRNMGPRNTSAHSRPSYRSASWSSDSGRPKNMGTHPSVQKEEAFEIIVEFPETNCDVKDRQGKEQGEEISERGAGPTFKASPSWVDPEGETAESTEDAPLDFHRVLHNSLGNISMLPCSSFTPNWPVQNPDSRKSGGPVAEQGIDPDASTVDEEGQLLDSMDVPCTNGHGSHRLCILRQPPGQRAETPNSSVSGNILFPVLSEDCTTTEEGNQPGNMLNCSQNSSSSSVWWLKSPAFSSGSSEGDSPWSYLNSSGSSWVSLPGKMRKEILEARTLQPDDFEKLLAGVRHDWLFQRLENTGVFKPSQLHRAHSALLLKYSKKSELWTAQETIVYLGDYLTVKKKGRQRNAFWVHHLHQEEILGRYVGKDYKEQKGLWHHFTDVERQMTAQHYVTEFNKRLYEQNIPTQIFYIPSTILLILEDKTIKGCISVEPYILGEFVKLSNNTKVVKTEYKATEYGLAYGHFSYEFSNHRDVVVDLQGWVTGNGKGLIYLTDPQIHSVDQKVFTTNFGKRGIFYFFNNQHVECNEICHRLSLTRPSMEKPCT
EXPERIMENTAL_DETAILS: NF-kB promoter driven alkaline phosphatase reporter in HEK293 cells (pNPP assay)
Format: cell-based
CONDITIONS_USED: HEK293-NFkB-AP reporter cells treated 7 hours, FIG. 7A, Table 2B
METRIC: EC50

COMPOUND	METRIC	VALUE_MEASURED
CCCCCCCCCCCC(=O)OC[C@H](F)C1O[C@@H](OP(=O)(O)OP(O)(=S)OC[C@H]2O[C@@H](n3cnc4c(N)ncnc43)C(O)C2O)C(OC(C)=O)C(OC(C)=O)[C@@H]1OC(C)=O (stereo in doubt)	EC50	11.9 nM
CCCCCCCCC(=O)OC[C@H](F)C1O[C@@H](OP(=O)(O)OP(O)(=S)OC[C@H]2O[C@@H](n3cnc4c(N)ncnc43)C(O)C2O)C(OC(C)=O)C(OC(C)=O)[C@@H]1OC(C)=O (some centres unmarked)	EC50	19.1 nM
CCCCCCCCCCCCCC(=O)OC[C@H](F)C1O[C@@H](OP(=O)(O)OP(O)(=S)OC[C@H]2O[C@@H](n3cnc4c(N)ncnc43)C(O)C2O)C(OC(C)=O)C(OC(C)=O)[C@@H]1OC(C)=O (some centres unmarked)	EC50	3.9 nM
CCCCCCCCCCCCCCCCCC(=O)OC[C@H](F)[C@H]1O[C@@H](OP(=O)(O)OP(O)(=S)OC[C@H]2O[C@@H](n3cnc4c(N)ncnc43)[C@H](O)[C@@H]2O)[C@@H](OC(C)=O)[C@@H](OC(C)=O)[C@@H]1OC(C)=O (some centres unmarked)	EC50	11 nM
CC(=O)OC[C@H](F)C1O[C@@H](OP(=O)(O)OP(O)(=S)OC[C@H]2O[C@@H](n3cnc4c(N)ncnc43)C(O)C2O)C(OC(C)=O)C(OC(C)=O)[C@@H]1OC(C)=O (some centres unmarked)	EC50	45 nM
